PARAMETER: ready biodegradability

C=CC(C)(O)CCC=C(C)C (centres undefined) :: readily biodegradable
O=C(O)CS :: readily biodegradable

====

conditions: fish
PARAMETER: log10 biotransformation half-life (days)
Number only, please.

Example entries begin here.
CCc1cccc(CC)c1N(COC)C(=O)CCl :: -1.1
C=C(C)CC(C)(C)C :: 0.12
CN(C)C(=O)Nc1ccc(Cl)c(Cl)c1 :: -1.45

Now look at this entry.
**Q:** Endpoint output: log10 biotransformation half-life (days) of Cc1cccc(C(C)C)c1 . Value?
**A:** 0.07

====

PARAMETER: log10 vapour pressure (mmHg)

CCCCCCCCCCCl :: -2.01

**Q:** Endpoint output: log10 vapour pressure (mmHg) of CCCCC(CC)COC(C)=O (configuration not stated) . Value?
**A:** -0.638

====

Label condition met when log10 Koc (L/kg) is strictly below 3; at or above that, label condition not met.

O=C(Nc1ccccc1)Nc1cnns1 :: condition met
CN(C)C(=O)Nc1cccc(F)c1 :: condition met
CNC(=O)ON=CC(C)(C)SC :: condition met
CON(C)C(=O)Nc1ccc(Cl)cc1 :: condition met
CBr :: condition met

**Q:** Take the compound O=[N+]([O-])c1cc(Cl)c(Cl)c(Cl)c1Cl and say whether its log10 Koc (L/kg) is less than 3.
**A:** condition not met

**Q:** Take the compound C#CC(C)(C)NC(=O)c1cc(Cl)cc(Cl)c1 and say whether its log10 Koc (L/kg) is less than 3.
**A:** condition met

**Q:** Take the compound CCOC(=O)c1ccccc1 and say whether its log10 Koc (L/kg) is less than 3.
**A:** condition met

**Q:** Take the compound CC1(C)[C@H](/C=C(\Cl)C(F)(F)F)[C@@H]1C(=O)O[C@H](C#N)c1cccc(Oc2ccccc2)c1 and say whether its log10 Koc (L/kg) is less than 3.
**A:** condition not met

**Q:** Take the compound Nc1ccc(-c2ccc(N)cc2)cc1 and say whether its log10 Koc (L/kg) is less than 3.
**A:** condition not met

====

boiling point values, listed per item
I'd appreciate it if you included the unit after the number.

CC(C)CCOC(=O)C(=O)OCCC(C)C :: 268 °C
C1=CCc2ccccc2C1 :: 212 °C
CC(=O)OO[N+](=O)[O-] :: 106 °C
COc1cc(Cl)c(Cl)cc1Cl :: 254 °C
CCOC(=O)C(CCC(C)C)C(=O)OCC :: 241 °C

**Q:** Endpoint output: boiling point of CC(C)=CC=O . Value?
**A:** 134 °C

**Q:** Endpoint output: boiling point of CC1Cc2ccccc2C1 . Value?
**A:** 195 °C

**Q:** Endpoint output: boiling point of OCCCO . Value?
**A:** 214 °C

**Q:** Endpoint output: boiling point of C=CCCCC(C)C . Value?
**A:** 113 °C

====

PARAMETER: melting point (°C)
Return type: number; implicit unit °C.

Example entries begin here.
Nc1ccc2ccccc2c1N :: 98.5
CCC(Oc1c(I)cc(I)cc1I)C(=O)O (stereo not given) :: 124
CC(CCC(=O)O)n1nc2ccccc2n1 (stereo not given) :: 73
CC1=C(/C=C/C(C)=C/C=C/C(C)=C/C=C/C=C(C)/C=C/C=C(C)/C=C/C2=C(C)C(=O)CCC2(C)C)C(C)(C)CCC1 :: 179
Cc1cccnc1 :: -18.1
CCCCCCCCN :: 0

**Q:** Endpoint output: melting point of CCCCP(=O)(CCCC)CCCC . Value?
**A:** 64

**Q:** Endpoint output: melting point of CN1[C@@H]2CC[C@H]1C[C@@H](O)C2 . Value?
**A:** 86.5

**Q:** Endpoint output: melting point of Nc1ccc(C(=O)c2ccccc2)cc1 . Value?
**A:** 122

**Q:** Endpoint output: melting point of C1COCCOCCOCCO1 . Value?
**A:** 16

**Q:** Endpoint output: melting point of O=C(O)[C@H]1CC[C@H]1C(=O)O . Value?
**A:** 131

**Q:** Endpoint output: melting point of COc1ccccc1OC(=O)Oc1ccccc1OC . Value?
**A:** 89

====

Label true when melting point is strictly below 30 °C; at or above that, label false.

Please review the following examples before continuing.
Fc1ccccc1C1=NCC(=S)N(CC(F)(F)F)c2ccc(Cl)cc21 :: false
OCCCCCCCCCCCCO :: false
C[C@](N)(Cc1ccc(O)cc1)C(=O)O :: false
COc1ccc(NC(=O)N(C)C)cc1Cl :: false
Cc1cccc(C(C)C)c1 :: true
CC(=O)Oc1cccc2c1C(=O)c1c(OC(C)=O)cc(C(=O)O)cc1C2=O :: false
C1=CC2C=CC1C2 :: true
Nc1ccc(-c2ccc(N)cc2)cc1 :: false
N#CCc1ccc([N+](=O)[O-])cc1 :: false
CC1(C)CC(N)CC(C)(CN)C1 (centres undefined) :: true

**Q:** Take the molecule CCCCCCCCCCCCCCCC(=O)OC(C)C and say whether its melting point is less than 30 °C.
**A:** true

**Q:** Take the molecule OC[C@]1(O)OC[C@@H](O)[C@H](O)[C@@H]1O and say whether its melting point is less than 30 °C.
**A:** false

**Q:** Take the molecule O=C(OCc1ccco1)c1ccco1 and say whether its melting point is less than 30 °C.
**A:** true

**Q:** Take the molecule CCCCCCCCCCCCCCCCOCCCCCCCCCCCCCCCC and say whether its melting point is less than 30 °C.
**A:** false

====

details: fish
PARAMETER: log10 biotransformation half-life (days)

c1ccc2cc3ccccc3cc2c1 :: 0.65

**Q:** Endpoint output: log10 biotransformation half-life (days) of COP(=S)(OC)Oc1ccc([N+](=O)[O-])c(Cl)c1 . Value?
**A:** -0.47

**Q:** Endpoint output: log10 biotransformation half-life (days) of Clc1ccc(-c2cccc(Cl)c2Cl)c(Cl)c1 . Value?
**A:** 2.62

**Q:** Endpoint output: log10 biotransformation half-life (days) of COP(=S)(OC)Oc1cc(Cl)c(I)cc1Cl . Value?
**A:** 0.86

**Q:** Endpoint output: log10 biotransformation half-life (days) of Brc1c(Br)c(Br)c(Oc2c(Br)c(Br)c(Br)c(Br)c2Br)c(Br)c1Br . Value?
**A:** 1.16

**Q:** Endpoint output: log10 biotransformation half-life (days) of Cc1ccccc1[N+](=O)[O-] . Value?
**A:** -0.48

**Q:** Endpoint output: log10 biotransformation half-life (days) of Clc1ccc(-c2c(Cl)cccc2Cl)c(Cl)c1 . Value?
**A:** 2.47

====

boiling point values, listed per item
Return type: number; implicit unit °C.

Example entries begin here.
CCc1ccc(Cl)cc1 :: 184
CC1=CC(=O)C(C(C)C)=CC1=O :: 232
CC(C)CC(C)(C)C(C)C :: 153
CN1CCN(C)CC1 :: 131

**Q:** Endpoint output: boiling point of OC1CCOC1 (stereo unspecified) . Value?
**A:** 181

**Q:** Endpoint output: boiling point of C=CC(=O)CC . Value?
**A:** 103

**Q:** Endpoint output: boiling point of CCC1CC1 . Value?
**A:** 35.9

**Q:** Endpoint output: boiling point of CCCCCCCCCCCCCCCCCCc1ccccc1 . Value?
**A:** 408

**Q:** Endpoint output: boiling point of CC(C)=C1OC(=O)C1(C)C . Value?
**A:** 170

====

Label 1 when boiling point is strictly below 200 °C; at or above that, label -1.

CC1CCCC1(C)C (stereo not drawn) :: 1
Cc1cc(N)n(-c2ccccc2)n1 :: -1
FC(F)(F)C(F)(F)C(F)(C(F)(F)F)C(F)(F)C(F)(F)F :: 1
CCCCCCCCC=O :: 1
ClCCCCBr :: 1

**Q:** Take the compound CC1=CCC(=C(C)C)CC1 and say whether its boiling point is less than 200 °C.
**A:** 1

**Q:** Take the compound O=C(O)CC=Cc1ccccc1 and say whether its boiling point is less than 200 °C.
**A:** -1

**Q:** Take the compound CCCC(C)(C)C(C)CC (stereo not drawn) and say whether its boiling point is less than 200 °C.
**A:** 1

**Q:** Take the compound CCCCCC(C)C(C)C (stereo not drawn) and say whether its boiling point is less than 200 °C.
**A:** 1

**Q:** Take the compound CCSCC and say whether its boiling point is less than 200 °C.
**A:** 1

**Q:** Take the compound CC(C)CC(C)(C)C and say whether its boiling point is less than 200 °C.
**A:** 1

**Q:** Take the compound CCCCCCCCCCCCCCCCCCCCCC and say whether its boiling point is less than 200 °C.
**A:** -1

// provenance: the OPERA property sets (Mansouri et al. 2018)
